Target: CYP2C19 (Homo sapiens, UniProt P33261)
Construct: from tissue; host or cells: human liver microsomes (pooled in the time-dependent assay)
Sequence (P33261 whole entry): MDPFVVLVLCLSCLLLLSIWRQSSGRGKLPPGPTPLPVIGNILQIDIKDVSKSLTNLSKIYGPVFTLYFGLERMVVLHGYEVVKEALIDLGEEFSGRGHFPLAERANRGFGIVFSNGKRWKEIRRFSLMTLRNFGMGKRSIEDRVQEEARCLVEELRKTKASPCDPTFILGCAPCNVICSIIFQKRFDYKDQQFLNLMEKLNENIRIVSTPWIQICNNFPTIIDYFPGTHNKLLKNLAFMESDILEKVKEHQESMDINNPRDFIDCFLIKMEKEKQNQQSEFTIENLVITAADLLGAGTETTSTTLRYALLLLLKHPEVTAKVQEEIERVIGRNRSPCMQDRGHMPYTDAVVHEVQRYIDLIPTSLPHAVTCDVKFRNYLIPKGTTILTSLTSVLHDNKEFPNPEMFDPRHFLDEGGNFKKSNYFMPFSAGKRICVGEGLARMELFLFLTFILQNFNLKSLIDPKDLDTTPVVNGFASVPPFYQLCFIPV
Assay: direct inhibition of CYP450 in human liver microsomes
Type: in vitro ADME
Conditions: 50 uM, % of non-inhibited control, read-out: CYP2C19 T0 % activity
Label y for high-side activity at 50 µM (at or above 80%) and n for low-side activity at 50 µM (below it).

(Q) Check the entry CO[C@H]1CC[C@H](NC(=O)c2cc(C3CCC(F)(F)CC3)nc(-c3cncn3C)n2)CC1 [Compound 289] : does activity at 50 µM equal or exceed 80%?
(A) n

(Q) Check the entry Cn1cncc1-c1ccnc(C(=O)Nc2ccc(C(C)(C)O)nc2)n1 [Compound 250] : does activity at 50 µM equal or exceed 80%?
(A) n

(Q) Check the entry CO[C@H]1CC[C@H](NC(=O)c2cc(C3CCOCC3)nc(-c3cncn3C)n2)CC1 [Compound 199] : does activity at 50 µM equal or exceed 80%?
(A) n

(Q) Check the entry [2H]c1nc([2H])n(-c2nc(C)cc(C(=O)N[C@H]3CC[C@H](OCCOC)CC3)n2)c1[2H] [Comparator Compound A, reference compound] : does activity at 50 µM equal or exceed 80%?
(A) n

(Q) Check the entry Cn1cncc1-c1ccnc(C(=O)N[C@H]2CC[C@H](O)CC2)n1 [Compound 256] : does activity at 50 µM equal or exceed 80%?
(A) y

(Q) Check the entry CO[C@H]1CC[C@H](NC(=O)c2nccc(-n3ccnc3)n2)CC1 [Compound 145] : does activity at 50 µM equal or exceed 80%?
(A) y

(Q) Check the entry CC(C)(O)c1ccc(NC(=O)c2nccc(-n3ccnc3)n2)cn1 [Compound 249] : does activity at 50 µM equal or exceed 80%?
(A) n
